Kindly state amyloid nucleation score for each of the entries shown.
experiment: amyloid nucleation score (Sup35N fusion, yeast selection) (log enrichment); library NNK1; higher = more nucleation; inactive = no reads after selection;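 further: zero at mode of non-aggregating sequences after 7 days selection at 30°C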
Answers are plain numbers.

Examples from the recorded data:
Lab note: measured amyloid nucleation score of NLSIYIYSNNLLLNVF was 6.19

Lab note: measured amyloid nucleation score of NLFLVIPAFDLLMFGSERSS was 5.55

Lab note: measured amyloid nucleation score of YQETPVNPEPVV was -0.01

Lab note: measured amyloid nucleation score of KLVLLGNK was 0.134

Lab note: measured amyloid nucleation score of WEVVMWRYCAPRTGVLPQKP was -0.535

Lab note: each substance below needs its amyloid nucleation score filled in.
1. LASEHNGASLICTLACTYLW
2. QILCLTVVSVFQGYSVMIPF
3. GSMSGTTDIPC

output:
-0.642
0.022
-0.158

Lab note: each substance below needs its amyloid nucleation score filled in.
1. SYISLSLISFSVGGSSHFSM
2. SQFISK
3. SNEYLCYYMSTNA
4. KRFSSCLRRWAACNGESAAL
5. YDTLMMNNLEMSTFVRMGLW
6. DNWSMGYPEETGAWGVN

output:
[6.96, 1.14, -0.345, 0.412, 0.503, 0.406]

Lab note: measured amyloid nucleation score of RCVSFPIWRFIPEVLVIWLG was -1.04

---

test: amyloid nucleation score (Sup35N fusion, yeast selection) (log enrichment); library NNK1; higher = more nucleation; inactive = no reads after selection
Kindly state amyloid nucleation score for each of the entries shown.
Answers are plain numbers.

Lab note: measured amyloid nucleation score of EDSSTSLLVGMELKRLTVSF was 0.258

Lab note: measured amyloid nucleation score of SRNVVLPL was 0.195

Lab note: measured amyloid nucleation score of VYTKYICWGCVNAQRFDHGT was 8.27

Lab note: measured amyloid nucleation score of AGRSWSCMLVTVWSRTRVPL was 0.351

Lab note: measured amyloid nucleation score of FFLMISKLAKWKGVARKTAL was -0.937

Lab note: each substance below needs its amyloid nucleation score filled in.
1. NGSSLVANELRVWIVSSFML
2. SLAQFRWVV
3. FFAGSQIFIHRSLEWI
4. SSIMHSG
5. RTDLGVRIKF

output:
[-0.59, 1.52, 1.68, 0.925, 0.77]

---

experiment: amyloid nucleation score (Sup35N fusion, yeast selection) (log enrichment); library NNK2; higher = more nucleation; inactive = no reads after selection
Kindly state amyloid nucleation score for each of the entries shown.
Give bare numbers.

Examples from the recorded data:
Lab note: measured amyloid nucleation score of TNFYWY was 3.23

Lab note: measured amyloid nucleation score of VGHSIEALELTPIVVRYTYL was -0.341

Lab note: measured amyloid nucleation score of GLVLWRRHFKAAASVSMQSW was 0.216

Lab note: measured amyloid nucleation score of HGDMYRRQDVVSGSNE was 0.153

Lab note: measured amyloid nucleation score of SACRMNWEVGGIGLSVPLCG was 0.421

Lab note: measured amyloid nucleation score of VFFLFYTMWRLVYFEPNMKS was -1.25

Lab note: measured amyloid nucleation score of DRSRLGVGGVDVLWFLHSSK was 5.33

Lab note: measured amyloid nucleation score of SYASWYCLYCKNSGQGFLFE was 7.95

Lab note: each substance below needs its amyloid nucleation score filled in.
1. YALAAVSRFG
2. GYEASHSRFASSHLTPWGKR
3. WRYGNDYTFLIMDGC
4. YYGALWRYAGMSG
5. YFRMNPKFVCTKYSNAEYLS

output:
0.22
1.74
-0.511
-0.472
-0.427

Lab note: measured amyloid nucleation score of NFCLARRYTYIKSPFCVSGK was 0

---

experiment: amyloid nucleation score (Sup35N fusion, yeast selection) (log enrichment); library NNK2; higher = more nucleation; inactive = no reads after selection
Kindly state amyloid nucleation score for each of the entries shown.

Lab note: measured amyloid nucleation score of HQDRERTRVPSIILFSLFTY was 1.71

Lab note: each substance below needs its amyloid nucleation score filled in.
1. VVSTSYIGGKKRSFCVRCGG
2. QFDMEQFVQCPGTMSSRAVG
3. RFLLQS
4. IVCLYKKCLLCGLHLVVSIV
5. SRFGGVSTHYLARSFVDVTM
6. SYEVNIYKLRLQGSSSGF

output:
1: -0.73; 2: 5.04; 3: -0.39; 4: -0.608; 5: 0.039; 6: 3.44

Lab note: each substance below needs its amyloid nucleation score filled in.
1. SVRKGVFNSSMNGVCTTVQS
2. FNLMSMIRNRH

output:
1: -0.28; 2: -0.548

---

assay: amyloid nucleation score (Sup35N fusion, yeast selection) (log enrichment); library NNK3; higher = more nucleation; inactive = no reads after selection
assay-endpoint: amyloid nucleation score

Lab note: measured amyloid nucleation score of MMADDVSLICGCGRQ was 1.01

Lab note: measured amyloid nucleation score of ARHVENSAKGFVGYLRRMHV was inactive

Lab note: measured amyloid nucleation score of VSEIFFADVFISWYGISRVL was inactive

Lab note: measured amyloid nucleation score of FGMKTYRLQIGYNITVCHSI was -0.603

Lab note: measured amyloid nucleation score of KYNTCSEV was inactive

Lab note: each sequence below needs its amyloid nucleation score filled in.
1. MPRSCSDYACAV
2. TLVPVCGGSAGLVSSRKAAT
3. PEASLLVPMVSSYPLHFA
4. GTGTRSHTLA
5. RKIHLLGHWLFRSMYRRRFW
6. RTFWNSYWTGMVLRADWIMR
7. FNARLFISLLIKDRK
8. LSNGDAKTSRTASVRCLRYA

output:
1: inactive; 2: inactive; 3: inactive; 4: inactive; 5: inactive; 6: inactive; 7: inactive; 8: inactive

---

assay: amyloid nucleation score (Sup35N fusion, yeast selection) (log enrichment); library NNK3; higher = more nucleation; inactive = no reads after selection
assay-endpoint: amyloid nucleation score

Lab note: measured amyloid nucleation score of TIAHYTVP was inactive

Lab note: measured amyloid nucleation score of NNMLIGVRSVRAYKWFMHCV was inactive

Lab note: measured amyloid nucleation score of FIVVDMDSYRAVDGARVFVE was inactive

Lab note: measured amyloid nucleation score of RRVGSWTYVSFSDGI was 0.239

Lab note: measured amyloid nucleation score of SAYSVHLSSVHFELVVET was inactive

Lab note: each substance below needs its amyloid nucleation score filled in.
1. IITVSGPLVVLVLSGKGSNN
2. EVQVFSFDTGCMHSHNLYAS
3. IKFVPRA
4. NFMGVYLVWNFIVVFKVHYV
5. WSLSYHRKMIFGDTCVTYIG
6. STDNVGMGKGWTGVIGWRVM

output:
1. 2.42
2. inactive
3. inactive
4. inactive
5. inactive
6. inactive

---

assay: amyloid nucleation score (Sup35N fusion, yeast selection) (log enrichment); library NNK2; higher = more nucleation; inactive = no reads after selection
assay-endpoint: amyloid nucleation score
Answers are plain numbers.

Examples from the recorded data:
Lab note: measured amyloid nucleation score of IICMEVIFSLANCADWRTAV was 3.53

Lab note: measured amyloid nucleation score of YSGDRDTVLYHCTRVGAESV was 0.109

Lab note: measured amyloid nucleation score of LLGQLKFLFLDVFLWLYVCS was 1.56

Lab note: measured amyloid nucleation score of ISCCDRGCDAYLEVWPKLNK was -0.523

Lab note: measured amyloid nucleation score of AQTSWNILFAKS was -0.501

Lab note: each substance below needs its amyloid nucleation score filled in.
1. CSCQAVLLLASSRPAIKVRC
2. RQYFNVLDCWGIGVFGHKG
3. LSHPVIGGETKFPDDRNSQF

output:
1.86
1.34
0.119

Lab note: each substance below needs its amyloid nucleation score filled in.
1. YIWILWIAMEQNKSWRGQHD
2. LMSGVLGRWLKKSSKFQESL
3. NGRTRCNPFLFGFKGRPGEC
4. DLSRTRGTEKASRSVWLRSM
5. HLLHVSGLDEIEMWTGDF

output:
[4.44, -0.653, -1.34, 3.97, -0.332]

Lab note: each substance below needs its amyloid nucleation score filled in.
1. DKANRDQWHQAKSSVCFGGV
2. HTSSLF

output:
1. 0.089
2. -0.156

---

test: amyloid nucleation score (Sup35N fusion, yeast selection) (log enrichment); library NNK2; higher = more nucleation; inactive = no reads after selection
Kindly state amyloid nucleation score for each of the entries shown.
Answers are plain numbers.

Lab note: each sequence below needs its amyloid nucleation score filled in.
1. RSYLVFYTRYLTFNGPSTKF
2. NNFRWNVMVCYAFQGYSGVK
3. STLHQSIKTGDIFFDSGTFV

output:
1: 7.79; 2: 2.64; 3: -0.889

Lab note: each sequence below needs its amyloid nucleation score filled in.
1. AYSEPAISQRFFLSGLKSII
2. FMVACHCCHTSCEYNFGNTV
3. VSCVCHYVNNFNPMLCNRKC

output:
1. -0.885
2. 3.96
3. -0.064

Lab note: each sequence below needs its amyloid nucleation score filled in.
1. ALCIAGTLLYMANLISTLHG
2. YSKAAIFMESHFLASGNHKA

output:
[0.439, 4.67]
